B1: TPR t1 (parent)
chain: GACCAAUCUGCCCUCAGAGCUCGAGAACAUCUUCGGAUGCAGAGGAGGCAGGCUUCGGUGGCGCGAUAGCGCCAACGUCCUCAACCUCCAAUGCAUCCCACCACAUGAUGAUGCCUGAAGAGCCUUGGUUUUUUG

# Variants of: B1
# assayComment: polymerase ribozyme fitness, log enrichment relative to wild type (log ratio); higher = more active; in vitro selection for triplet polymerase activity
Outcome label depends on polymerase ribozyme fitness (log ratio) relative to -2: at/above gives T, below gives F.

// query Decide: is the reported value of polymerase ribozyme fitness (log ratio) for A50U C62U C80U A84G A95U equal to or greater than -2?
// result F

// query Could you tell me if the measured polymerase ribozyme fitness (log ratio) of C86A U92A G93C G120A reaches -2 or more?
// result F

// query Evaluate C13U G19C G48U : polymerase ribozyme fitness (log ratio) at minimum -2?
// result F

// query Kindly determine if polymerase ribozyme fitness (log ratio) recorded for A18U G44A U54A U59A C86U U106A is above or exactly -2.
// result F

// query For this variant, is measured polymerase ribozyme fitness (log ratio) -2 or higher? G10U C53U
// result T

// query Is polymerase ribozyme fitness (log ratio) for U38G A46U G61A U87A at or above -2?
// result T

// query Determine whether measured polymerase ribozyme fitness (log ratio) meets or exceeds -2 for C79U C94G
// result T

// query Check this variant for polymerase ribozyme fitness (log ratio) at or above -2: A18C G39C A41U C123U
// result F

New cases:
// query Check this variant for polymerase ribozyme fitness (log ratio) at or above -2: C13A A90G A95G U133G
// result T

// query hey, is polymerase ribozyme fitness (log ratio) for this one >= -2? C22G G61C A68C C123U
// result F

// query Decide: is the reported value of polymerase ribozyme fitness (log ratio) for C34U U54A equal to or greater than -2?
// result F
